Attribution: patent US20080248043A1

# test system: S1-Ig (261-672) (SARS-CoV; human, UniProt P59594 261-672)
# run description: ELISA, coated S1-IgG 261-672

| binder | Reactivity S1-IgG (ELISA OD) |
| --- | --- |
| 3C7 (antibody, V domains shown) VH: QVQLVESGGGVVQPGTSLRLSCAASGFTFSSYGIHWVRQAPGKGLEWVAVIWYDGSNKFYADSVKGRFTISRDNSKNTLYLQMNSLRAEDTAVYYCARDPLGYCSSTSCSYFDYWGQGTLVTVSS VL: DIQMTQSPSSVSASVGDRVTITCRASQGISNWLAWYQQKPGKAPKLLIYAASSLQSGVPSRFSGSGSGTDFTLTIRSLQPEDFATYYCQQANNFPLTFGGGTKVEIK | 0.357 |
| 1B5 (antibody, V domains shown) VH: QVQLVESGGGVVQPGRSLRLSCAASGFTFSSYGMHWVRQAPGKGLEWVAVIWYDGSNKYYADSVKGRFTISRDNSKNTLYLQMNSLRAEDTAVYYCARGDFYWFDPWGQGTLVTVSS VL: DIQMTQSPSSLSASVGDRVTITCRASQGIRSDLGWYQQRPGKTPKRLIYAASSLQSGVPSRFSGSGSGTEFTLTISSLQPEDFATYYCQQYNSYPLTFGGGTKVEIK | 0.11 |
| 3H12 (antibody, V domains shown) VH: QVQLQESGPGLVKPSETLSLTCTVSDGSISSFYWSWIRQPPGKGLEWIGYIYYSGSTNYNPSLKSRVTISVDTSKNQFSLKLSSVTAADTAVYYCARDYDILTGYSNYYGMDVWGQGTTVTVSS VL: DIQMTQSPSSLSASVGDRVTITCRASQGIRNDLGWYQQKPGKAPKRLIYAASSLQSGVPSRFSGSGSGTEFTLTISSLQPEDFATYYCLQHNSYPFTFGPGTKLDIK | 0.09 |
